- Measurement Target: purified E. coli 70S ribosome (E. coli (endogenous in BW25113), UniProt P60723 1-201; P61175 1-110; P0ADZ0 1-100; P0A7M6 1-63; P0A7J3 1-165)
- Measurement Notes: FP; competition with cf-Api88
Where no end group is shown, it is not given here. [ ]: non-standard residue; d: D form. Gu = N-terminal tetramethylguanidine; Orn = NCCC[C@H](N)C(=O)O
Assay Metric: pIC50
Remember, pIC50 is on a log scale: it is -log10 of the molar concentration.

Examples with answers:
[
  {
    "Binder": "Gu-[Orn]NNRPVYIPRPRPPHPRL-NH2 [Api88 (Gu-ONNRPVYIPRPRPPHPRL-NH2)]",
    "pIC50": 4.89
  },
  {
    "Binder": "Gu-[Orn]NNRPVYIPRPRPPHPRL-OH [Api137 (Gu-ONNRPVYIPRPRPPHPRL-OH)]",
    "pIC50": 4.80
  }
]

Field: next binder
Let me know recorded pIC50 for VDKPPYLPRPRPPR[dR]IYN[dR]-NH2 [Onc112 (VDKPPYLPRPRPPRrIYNr-NH2)] , thanks.
5.01

meta.source: paper PMC11087509
